MEASURED TARGET: GABAA2 receptors (α2, β3, γ2 receptor subunits transfected into Sf9 cells) (Homo sapiens, UniProt P18507+P47869)
Sequence (P47869 29-451): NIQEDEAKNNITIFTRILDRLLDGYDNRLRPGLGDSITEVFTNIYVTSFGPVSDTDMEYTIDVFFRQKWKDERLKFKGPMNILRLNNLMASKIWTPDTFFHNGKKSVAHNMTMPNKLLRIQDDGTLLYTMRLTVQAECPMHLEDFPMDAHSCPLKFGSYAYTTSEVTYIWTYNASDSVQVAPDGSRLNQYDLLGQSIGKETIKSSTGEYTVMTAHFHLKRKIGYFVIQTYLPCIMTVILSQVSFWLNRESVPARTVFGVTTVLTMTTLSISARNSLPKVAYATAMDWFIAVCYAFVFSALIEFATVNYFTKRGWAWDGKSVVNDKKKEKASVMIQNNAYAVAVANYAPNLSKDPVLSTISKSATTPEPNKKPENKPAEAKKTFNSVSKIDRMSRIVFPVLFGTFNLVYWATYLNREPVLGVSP
Sequence (P28472 26-473 partner): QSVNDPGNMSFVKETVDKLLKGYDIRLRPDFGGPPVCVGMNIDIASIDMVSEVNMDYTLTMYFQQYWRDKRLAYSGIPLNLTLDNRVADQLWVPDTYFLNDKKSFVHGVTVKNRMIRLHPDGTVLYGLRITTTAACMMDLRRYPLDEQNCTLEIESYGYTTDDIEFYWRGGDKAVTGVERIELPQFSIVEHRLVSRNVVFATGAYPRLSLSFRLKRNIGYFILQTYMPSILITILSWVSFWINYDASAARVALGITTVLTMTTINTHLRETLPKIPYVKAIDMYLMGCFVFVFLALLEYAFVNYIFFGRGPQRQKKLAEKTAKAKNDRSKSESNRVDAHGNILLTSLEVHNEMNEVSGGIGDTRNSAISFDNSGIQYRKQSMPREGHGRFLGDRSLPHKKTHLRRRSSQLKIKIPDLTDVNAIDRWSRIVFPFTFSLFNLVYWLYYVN
Sequence (P18507 40-475): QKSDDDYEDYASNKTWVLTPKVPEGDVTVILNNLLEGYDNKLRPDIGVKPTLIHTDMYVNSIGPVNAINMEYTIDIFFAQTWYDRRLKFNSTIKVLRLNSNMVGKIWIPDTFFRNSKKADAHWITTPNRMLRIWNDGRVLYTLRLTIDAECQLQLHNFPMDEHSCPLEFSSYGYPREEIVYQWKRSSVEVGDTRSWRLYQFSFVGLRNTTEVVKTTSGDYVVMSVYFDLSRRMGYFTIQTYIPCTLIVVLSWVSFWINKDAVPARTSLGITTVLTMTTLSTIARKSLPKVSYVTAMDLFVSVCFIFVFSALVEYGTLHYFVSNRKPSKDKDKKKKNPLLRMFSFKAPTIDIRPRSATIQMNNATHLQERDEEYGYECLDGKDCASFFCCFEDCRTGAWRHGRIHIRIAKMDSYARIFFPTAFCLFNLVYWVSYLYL
METHOD DESCRIPTION: GABAA2 Binding Method ([3H]-Flunitrazepam displacement)
CONDITION SUMMARY: [3H]-Flunitrazepam ~2 nM, α2β3γ2 Sf9 membranes, 1 hr at 4° C.
pKi: −log10 of the molar value.

- MOLECULE: "COc1ncc(-c2cccc3c(N)c4c(nc23)CN(Cc2ccc(OC)c(OC)c2)C4=O)c(OC)n1"
  pKi: 7.87
- MOLECULE: "COc1ccc(CN2Cc3nc4c(-c5ccc(-c6ccc(Cl)nc6)nc5)cccc4c(N)c3C2=O)cc1OC"
  pKi: 7.69
- MOLECULE: "COc1ccc(-c2cccc3c(N)c4c(nc23)CN(C2CC2)C4=O)c(OC)c1"
  pKi: 7.23
- MOLECULE: "COc1ncccc1-c1cccc2c(N)c3c(nc12)CN(Cc1ccc2c(c1)OCO2)C3=O"
  pKi: 8.24
- MOLECULE: "CCN1Cc2nc3c(-c4c(OC)cccc4OC)cccc3c(N)c2C1=O"
  pKi: 7.08
- MOLECULE: "CCN1Cc2nc3c(-c4cc(Cl)ccc4OC)c(F)ccc3c(N)c2C1=O"
  pKi: 8.65
- MOLECULE: "CCCN1Cc2nc3c(-c4ccc(C)nc4C)cccc3c(N)c2C1=O"
  pKi: 8.58
- MOLECULE: "COc1cccc(F)c1-c1cccc2c(N)c3c(nc12)CN(C1CCC1)C3=O (single isomer, unassigned) [Example 129]"
  pKi: 9.54
- MOLECULE: "CCCCN1Cc2nc3c(-c4c(F)cccc4OC)cccc3c(N)c2C1=O"
  pKi: 8.34
- MOLECULE: "CCN1Cc2nc3c(-c4c(F)cccc4OC)c(F)ccc3c(N)c2C1=O"
  pKi: 8.46
- MOLECULE: "Nc1c2c(nc3c(-c4ccccc4C(F)(F)F)cccc13)CN(C1CC1)C2=O"
  pKi: 7.64
- MOLECULE: "CCCN1Cc2nc3c(-c4ccc(C)nc4F)cccc3c(N)c2C1=O"
  pKi: 7.71
- MOLECULE: "CCCN1Cc2nc3c(-c4ccc(F)cc4)cccc3c(N)c2C1=O"
  pKi: 7.11
- MOLECULE: "COc1cc(OC)cc(-c2cccc3c(N)c4c(nc23)CN(C)C4=O)c1"
  pKi: 7.13
- MOLECULE: "COc1ccccc1-c1cccc2c(N)c3c(nc12)CN(C1CCC1)C3=O"
  pKi: 8.45
- MOLECULE: "COc1ccc(-c2cccc3c(N)c4c(nc23)CN(C2CCC2)C4=O)c(C)n1"
  pKi: 8.30
- MOLECULE: "Nc1c2c(nc3c(-c4ncccn4)cccc13)CN(C1CCC1)C2=O"
  pKi: 8.08
- MOLECULE: "COc1ccccc1-c1c(F)ccc2c(N)c3c(nc12)CN(C1CCC1)C3=O"
  pKi: 8.81
- MOLECULE: "COc1ccc(CN2Cc3nc4c(-c5c(F)cccc5OC)cccc4c(N)c3C2=O)cc1Cl"
  pKi: 7.99
- MOLECULE: "Nc1c2c(nc3c(-c4cnccn4)cccc13)CN(C1CCC1)C2=O"
  pKi: 7.95
